property name: melting point (°C)

As a guide, the following entries are already answered.
* CCCCCCCCCCCCC(=O)OC | 6.5
* O=c1nc2ccccc2nc(C(F)(F)F)c1NNc1cccc2ccccc12 | 171

1 = CNCCOC(=O)C=C1CCC2C(C(O)CC3C(C)(C(=O)OC)CCCC23C)C1C (stereo unspecified)
2 = O=C1C(=C2Nc3ccccc3C2=O)Nc2ccccc21
3 = C#CCOc1ccc(Cc2ccc(O)cc2)cc1
4 = CC(C)C(C)(C)Cl
5 = OC(CCl)CCl
query: Sort ascending by melting point. Would you mind listing the labels in the order requested?
result: 4, 5, 3, 1, 2
(4: -10 °C, 5: -4 °C, 3: 60 °C, 1: 115 °C, 2: 300 °C)

a = O=C(NC(Cc1ccccc1)C(=O)O)OCc1ccccc1 (stereo unspecified)
b = NS(=O)(=O)c1ccccc1OC(F)(F)F
query: Record comparison, field melting point: mark the lower of a and b . Give the label under which the chosen entry appears.
result: a
(a: 88.5 °C, b: 188 °C)

1 = O=Cc1ccc(N2CCCC2)cc1
2 = COc1ccc(N)c(C(=O)O)c1
query: Record comparison, field melting point: mark the lower of 1 and 2 . Give the label under which the chosen entry appears.
result: 1
(1: 85 °C, 2: 151 °C)

---

property name: melting point (°C)

As a guide, the following entries are already answered.
* Cc1cn(C2CC(F)C(CO)O2)c(=O)[nH]c1=O (configuration not stated) | 177
* CCCCCCCCCCOc1c(OC)cc(C(N)=O)cc1OC | 122
* CC(=O)OCCOCCOCCOC(C)=O | -50
* COCCOC(=O)c1ccccc1C(=O)OCCOC | -45
* O=C(O)C1=CCCc2ccccc21 | 125
* Cc1ccnc(Cl)c1N | 66
* Cc1cccc2c1CC2=O | 56
* CC(C)(C)OC(=O)N[C@@H](Cc1ccc(Br)cc1)C(=O)O | 118
* O=[N+]([O-])c1ccc2[nH]ncc2c1 | 210
* BrCCC1CCCCC1 | -57

I = Oc1ncnc2[nH]ncc12
II = CCOC(=O)c1ccc(O)c(O)c1
query: I or II : whose melting point is greater? Give the label under which the chosen entry appears.
result: I

---

property name: melting point (°C)

As a guide, the following entries are already answered.
• CC(=O)OC(OC(C)=O)c1ccc2c(c1[N+](=O)[O-])C(=O)c1c(Cl)c(Cl)c(Cl)c(Cl)c1C2=O = 250
• COc1cc(-c2nnc3sc(-c4cccnc4)nn23)cc(OC)c1OC = 175
• O=C(O)COc1cccc(CBr)c1 = 126

1 = O=C1OC2(c3ccccc31)c1cc([N+](=O)[O-])c(O)c(Br)c1Oc1c2cc([N+](=O)[O-])c(O)c1Br
2 = CC1CSC(C=Cc2ccccc2[N+](=O)[O-])S1 (stereo not given)
query: Record comparison, field melting point: mark the lower of 1 and 2 . Give the label under which the chosen entry appears.
result: 2
(2: 70 °C, 1: 275 °C)

---

property name: melting point (°C)

As a guide, the following entries are already answered.
* O=C1c2ccccc2C(=O)c2cc(O)ccc21 | 306
* O=Cc1ccccc1Sc1ccc(Cl)cc1 | 73
* CCn1cc(C(=O)O)c(=O)c2cnc(N3CCCC3)nc21 | 315
* Cc1ccc(C(=O)c2nn3c(nc(=O)c4ccccc43)s2)cc1 | 211
* CC(=O)Nc1ccc(N(Nc2ccccc2)C(C)=O)cc1 | 199

1 = N#C/C(=N\Nc1ccccc1[N+](=O)[O-])c1nc2ccccc2[nH]1
2 = CCCCCCCCCCCCCC(O)CC (configuration not stated)
query: Record comparison, field melting point: mark the lower of 1 and 2 . Give the label under which the chosen entry appears.
result: 2

A = CCOC(=O)C=C(C)OCC
B = N#CCCN1CCCCC1
query: A or B : whose melting point is greater? Give the label under which the chosen entry appears.
result: A

A = COc1c(Cl)c(Cl)cc(Cl)c1Cl
B = CC12CCCC1C1CC=C3CC(O)CCC3(C)C1CC2 (configuration not stated)
C = O=c1c(O)c(-c2ccc(O)c(O)c2)oc2cc(O)cc(O)c12
D = O=CCCCC=O
query: Sort ascending by melting point. Would you mind listing the labels in the order requested?
result: D, A, B, C
(D: -6 °C, A: 88.5 °C, B: 136 °C, C: 316 °C)
